# Tested on: HepG2
# Experiment: GSK_TCMDC: Percent inhibition of human HepG2 cell line. Test compounds present at 10uM.
# Format: functional
Quantity measured: Inhibition (%)
State the answer as a number, implicitly in %.

Sample answers from the record:
CCN(CC)CCOC(=O)C(OC)(c1ccccc1)c1ccccc1    0
COc1ccc2[nH]cc(C3=CCN(Cc4ccccc4)CC3)c2c1    51
Cc1cc(N(C)C2CCN(C)CC2)nc(Nc2ccc(Cl)cc2)n1    15

# evaluate next
get_value(item= "CN1CC=C(c2c[nH]c3ccc(OCc4ccccc4)cc23)CC1" , readout=Inhibition) returns 0

---

# Tested on: Plasmodium falciparum
# Experiment: GSK_TCMDC: Inhibition of Plasmodium falciparum 3D7 in whole red blood cells, using parasite LDH activity as an index of growth. Test compounds present at 2uM
# Assay type: functional
Listed compounds paired with reported Inhibition
Unit % implied. Number only.

COC(=O)c1ccc(CC(C)NCC(O)c2cccc(Cl)c2Cl)cc1.Cl (stereo not given)    98
COc1ccc2[nH]cc(C3CC4CCC(C3)N4CCC3CCN(C(=O)/C=C/c4ccc(Cl)c(Cl)c4)CC3)c2c1 (stereo not given)    100
CCOC(C(=O)OCC1CCCN(C)C1)(c1ccccc1)c1ccccc1 (stereo not given)    98
O=[N+]([O-])c1ccc(Oc2c(Cl)cc(S(=O)(=O)N3CCC(CN4CCC(c5c[nH]c6ccccc56)CC4)CC3)cc2Cl)c(Cl)c1    100
CCCCCCCN1C2CCC1CC(CCOc1ccnc3ccc(OC)cc13)C2 (stereo not given)    98
Cc1cccc2[nH]cc(C3CCN(CC4CCC(NC(=O)/C=C/c5ccc(Cl)c(Cl)c5)CC4)CC3)c12.Cl (stereo not given)    100
CC[C@H]1CN2CC[C@H]1C[C@H]2[C@H](O)c1cc(N2CCCC(CO)C2)nc2ccc(OC)cc12 (stereo not given in full)    100
Cl.N#Cc1c(F)cc(N2CCC(NCC[C@H](N)Cc3ccc(F)c(F)c3)CC2)cc1F    100

Lab book: Inhibition of CC(C)(C)c1cc(/C=C/C(=O)NC2CCC(CN3CCC(c4c[nH]c5ccccc45)CC3)CC2)cc(C(C)(C)C)c1O (stereo not given) noted as 100

// sample COC(=O)c1ccc(CC(C)NCC(O)c2cccc(OCc3ccccc3)c2)cc1.Cl (stereo not given) , its Inhibition was 86

---

# Test system: Plasmodium falciparum
# Experiment: GSK_TCMDC: Inhibition of Plasmodium falciparum 3D7 in whole red blood cells, using parasite LDH activity as an index of growth. Test compounds present at 2uM
# Assay type: functional
# Inhibition listing for each entry below
Note: unit % is implicit; provide only the numeric part.

Notebook: Cc1c(C(=O)NC2CCC(CN3CCC(c4c[nH]c5ccccc45)CC3)CC2)cnn1-c1c(Cl)cc(Cl)cc1Cl (centres undefined) , Inhibition read as 100

Lab book: Inhibition of COc1cc(C=CC(=O)NC2CCC(CN3CCC(c4c[nH]c5ccccc45)CC3)CC2)cc(OC)c1 (centres undefined) noted as 100

# Inhibition of COc1ccc(CN2CCN(CCOC(c3ccccc3)c3ccc(Cl)cc3)CC2)c(O)c1 (centres undefined) = 99

Entry CC(=O)C1(c2ccccc2)CCN(CCC(NC(=O)c2cc(C(F)(F)F)cc(C(F)(F)F)c2)c2ccc(Cl)c(Cl)c2)CC1.Cl (centres undefined) ; Inhibition = 91

Data origin: ChEMBL document CHEMBL1157539
